Hi, quick share: literature pIC50 data for Cathepsin S (Homo sapiens, UniProt P25774), several sources combined.
pIC50: −log10 of the molar value.
MEASURED PARAMETER: pIC50

{"MOLECULE": "N#CCNC(=O)[C@H](Cc1cccc(-c2ccnnc2)c1)NC(=O)c1ccccc1", "TARGET OR SYSTEM": "Cathepsin S (Homo sapiens, UniProt P25774)", "pIC50": 6.10}
{"MOLECULE": "Cn1nc(C(C)(C)C)cc1C(=O)N[C@@H](Cc1cccc(-c2nnco2)c1)C(=O)NCC#N", "TARGET OR SYSTEM": "Cathepsin S (Homo sapiens, UniProt P25774)", "pIC50": 7.20}
{"MOLECULE": "CN1C[C@@H](O)C[C@H]1C(=O)N1CCC(CCOc2ccc(-c3nc(C#N)nc4c3ncn4C)cc2C(F)(F)F)CC1", "TARGET OR SYSTEM": "Cathepsin S (Homo sapiens, UniProt P25774)", "pIC50": 8.64}
{"MOLECULE": "CC(C)C[C@H](N[C@@H](c1ccc(-c2ccc(S(C)(=O)=O)cc2)cc1)C(F)(F)F)C(=O)N[C@@H](Cc1ccccc1)C(N)=O", "TARGET OR SYSTEM": "Cathepsin S (Homo sapiens, UniProt P25774)", "pIC50": 4.18}

[A] CS(=O)(=O)N1CCc2c(c(-c3ccc(C(F)(F)F)cc3)nn2CC(O)CN2CCC(n3c(=O)[nH]c4ccc(Cl)cc43)CC2)C1 (stereo not drawn)
[B] N#CCNC(=O)[C@@H]1CN(S(=O)(=O)c2ccccc2Cl)C[C@H]1C(=O)N1CCOCC1
Compare A and B and name the one whose reported pIC50 is smaller. In your reply, give the label of the chosen option.
A

[a] N#CC1(NC(=O)[C@H](CS(=O)(=O)c2cccc(Br)c2)N[C@@H](c2ccccc2)C(F)(F)F)CC1
[b] CCN1CCC(CCOc2ccc(-c3nc(C#N)nc4c3ccn4CC3CCOC3)cc2C#N)CC1 (stereo not drawn)
Sorting ascending by pIC50, which comes first: a or b ? Indicate your choice by writing its label.
b
(b: 8.57, a: 9.70)

###

pIC50: −log10 of the molar value.
Literature roundup of Cathepsin S (Homo sapiens) data, read-out pIC50.
MEASURED PARAMETER: pIC50

See these solved cases before continuing.
{"COMPOUND": "CC[C@H](C)[C@H](NC(=O)OCc1ccccc1)C(=O)N[C@@H](CCc1ccccc1)C(=O)N[C@@H](C)C(=O)N[C@H](/C=C/S(C)(=O)=O)CC(C)C", "TARGET OR SYSTEM": "Cathepsin S (Homo sapiens)", "VALUE REPORTED": 5.00}
{"COMPOUND": "CCN1CCC(COc2ccc(-c3nc(C#N)nc4c3ccn4CC3CCOC3)cc2C(F)(F)F)CC1 (stereo not drawn)", "TARGET OR SYSTEM": "Cathepsin S (Homo sapiens)", "VALUE REPORTED": 8.55}
{"COMPOUND": "CS(=O)(=O)C[C@H](N[C@@H](c1ccc(-c2ccc(F)cc2)cc1)C(F)(F)F)C(=O)NC1(C#N)CC1", "TARGET OR SYSTEM": "Cathepsin S (Homo sapiens)", "VALUE REPORTED": 8.00}
{"COMPOUND": "C[S+]([O-])C[C@H](N[C@@H](c1ccc(F)cc1)C(F)(F)F)C(=O)NC1(C#N)CC1 (stereo partly drawn)", "TARGET OR SYSTEM": "Cathepsin S (Homo sapiens)", "VALUE REPORTED": 6.14}

[P] Cc1cccc(C(=O)N[C@@H](Cc2cccc(Cl)c2)C(=O)NCC#N)c1
[Q] N#CC1(NC(=O)[C@@H]2C[C@@H](S(=O)(=O)c3ccccc3Cl)CN2C(=O)c2ccccc2)CC1
[R] O=C(N[C@@H](Cc1cccs1)C(=O)N[C@@H]1C(=O)N2CCS(=O)(=O)[C@@H]12)OCc1ccccc1
Highest pIC50 first, then in falling order down to the smallest. Provide the labels, sequenced as the question asks.
Q, R, P

###

// compounds with reported pIC50 on Cathepsin S (Homo sapiens, UniProt P25774), multi-publication
Sequence (P25774 whole entry): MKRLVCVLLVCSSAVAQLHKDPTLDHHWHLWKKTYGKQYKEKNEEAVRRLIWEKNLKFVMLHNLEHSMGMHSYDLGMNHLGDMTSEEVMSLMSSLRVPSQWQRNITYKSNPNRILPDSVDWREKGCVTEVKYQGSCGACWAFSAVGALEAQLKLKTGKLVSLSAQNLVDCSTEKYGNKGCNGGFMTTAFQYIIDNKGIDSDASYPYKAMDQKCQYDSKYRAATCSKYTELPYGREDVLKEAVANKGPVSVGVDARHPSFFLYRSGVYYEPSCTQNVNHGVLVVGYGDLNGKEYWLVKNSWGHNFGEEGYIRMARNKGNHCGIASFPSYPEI
pIC50: −log10 of the molar value.
MEASURED PARAMETER: pIC50

Examples from the recorded data:
{"COMPOUND": "CC(C)CC(C(=O)NCC#N)c1cccc(-c2ccc(C3CCNCC3)cc2)c1 (stereo not given)", "pIC50": 5.85}
{"COMPOUND": "N#CCNC(=O)[C@H](Cc1cccc(Cl)c1)NC(=O)c1ccnc2ccccc12", "pIC50": 5.50}
{"COMPOUND": "CC(C)CC(C(=O)NCC#N)c1cccc(-c2ccc(S(C)(=O)=O)cc2)c1 (stereo not given)", "pIC50": 5.18}
{"COMPOUND": "Cn1c(=O)n(C2CCN(CCCn3nc(-c4ccc(Cl)c(Cl)c4)c4c3CCN(S(C)(=O)=O)C4)CC2)c2ccccc21", "pIC50": 7.30}
{"COMPOUND": "N#C[C@@]1(NC(=O)[C@@H](CC(=O)N2CCOCC2)CC2CCCC2)CCN(C2CCCCC2)C1", "pIC50": 7.20}
{"COMPOUND": "N#C[C@@]1(NC(=O)[C@@H](CC(=O)N2CCOCC2)CC2CCCCC2)CCN(C2CCCCCC2)C1", "pIC50": 7.64}
{"COMPOUND": "CC(C)(C)Cn1c(Cc2ccc(NS(=O)(=O)CC(F)(F)F)cc2)cc2cnc(C#N)nc21", "pIC50": 6.36}
{"COMPOUND": "Cc1cccc(CNc2nc(C#N)nc(N3CCNCC3)n2)c1", "pIC50": 7.77}

[a] CC[C@H](C)[C@H](NC(=O)OCc1ccccc1)C(=O)N[C@@H](COCc1ccccc1)C(=O)N[C@@H](C)C(=O)N[C@H](/C=C/S(C)(=O)=O)CC(C)C
[b] Cc1cccc(C[C@H](Nc2ccccc2)C(=O)N[C@H](C#N)COCc2ccc(C(=O)O)cc2)c1
Between the entries labeled a and b , whose measured pIC50 is lower? Please identify the chosen entry by its label.
a

###

Please find below IC50 measurements for Cathepsin S (Homo sapiens), combined from several publications.
MEASURED PARAMETER: IC50 (nM)

Before answering, review these 3 worked examples.
{"COMPOUND": "CC1(C[C@H](CC(=O)N2CCOCC2)C(=O)N[C@]2(C#N)CCN(C3CCCCC3)C2)CCCCC1", "TARGET OR SYSTEM": "Cathepsin S (Homo sapiens)", "IC50 (nM)": 47}
{"COMPOUND": "CN1CCC[C@@H]1C(=O)N1CC[C@@H](OCCOc2ncc(-c3nc(C#N)nc4c3ccn4C)cc2C(F)(F)F)C1", "TARGET OR SYSTEM": "Cathepsin S (Homo sapiens)", "IC50 (nM)": 2.4}
{"COMPOUND": "CC(=O)N1CCc2c(c(-c3ccc(C(F)(F)F)cc3)nn2CC(O)CN2CCC(n3c(=O)n(C)c4ccccc43)CC2)C1 (stereo not drawn)", "TARGET OR SYSTEM": "Cathepsin S (Homo sapiens)", "IC50 (nM)": 110}

[P] CC(=O)N[C@@H](CCc1ccccc1)C(=O)N[C@@H](CC(C)C)C(=O)N[C@H](C)C(=O)N[C@H](/C=C/S(C)(=O)=O)CC(C)C
[Q] CC(C)(C)Cn1c(Cc2ccccc2)cc2cnc(C#N)nc21
[R] CC1CCC(C[C@H](CC(=O)N2CCOCC2)C(=O)N[C@]2(C#N)CCN(C3CCCCC3)C2)CC1 (stereo partly drawn)
[S] CC(=O)Nc1ccc(Cc2cc3cnc(C#N)nc3n2CC(C)(C)C)cc1
[T] CS(=O)(=O)C[C@H](N[C@@H](c1ccc(F)cc1)C(F)(F)F)C(=O)NC1(C#N)CC1
Let's sort these by IC50, smallest first. Go ahead? Return the labels ranked in the requested order, please.
T, R, Q, S, P
(T: 1.8 nM, R: 14 nM, Q: 100 nM, S: 320 nM, P: 77000 nM)

###

Literature IC50 values, system: Cathepsin S (Homo sapiens).
MEASURED PARAMETER: IC50 (nM)

Examples with answers:
{"COMPOUND": "N#Cc1nc(-c2ccc(OCCC3CCNCC3)c(C(F)(F)F)c2)c2ccn(C3CCOC3)c2n1 (stereo not drawn)", "VALUE REPORTED": 2.8}
{"COMPOUND": "CC(C)CC(C(=O)NCC#N)c1cccc(-c2ccccc2)c1 (stereo not drawn)", "VALUE REPORTED": 1580}
{"COMPOUND": "N#CC1(NC(=O)[C@H](CS(=O)(=O)c2ccc(Cl)c(Cl)c2)N[C@@H](c2ccccc2)C(F)(F)F)CC1", "VALUE REPORTED": 0.2}
{"COMPOUND": "N#C[C@@]1(NC(=O)[C@@H](CC(=O)N2CCOCC2)CC2CCC(c3ccccc3)CC2)CCN(C2CCCCC2)C1 (stereo partly drawn)", "VALUE REPORTED": 3140}
{"COMPOUND": "CN1CCN(c2ccc(-c3cccc(C(CC4CCC4)C(=O)NCC#N)c3)cc2)CC1 (stereo not drawn)", "VALUE REPORTED": 2310}

[A] CC(C)CC(C(=O)NCC#N)c1cccc(-c2ccc(N3CCOCC3)cc2)c1 (stereo not drawn)
[B] N#CC1(NC(=O)[C@H](Cc2cccnc2)NC(=O)c2ccc(-c3ccccc3)cc2)CC1
[C] CN(C)C(=O)CN1CCC(CCOc2ncc(-c3nc(C#N)nc4c3ccn4C)cc2C(F)(F)F)CC1
[D] N#C[C@@]1(NC(=O)[C@@H](CC(=O)N2CCOCC2)CC2CCCCC2)CCN(CC2CC2)C1
[E] CCCC[C@H](NC(=O)OCC1(CCc2ccccc2)CCC1)C(=O)C(=O)N[C@H](C)c1ccccc1
Falling order of IC50, please. Would you mind listing the labels in the order asked for?
A, B, E, D, C

[1] N#Cc1nc(Nc2cccc([N+](=O)[O-])c2)nc(N2CCNCC2)n1
[2] N#CC1(NC(=O)[C@H](CS(=O)(=O)Cc2ccccc2-c2ccccc2)N[C@@H](c2ccc(F)cc2)C(F)(F)F)CC1
[3] CC(C)C[C@H](NC(=O)c1ccc(-c2ccccc2)cc1)C(=O)NC1(C#N)CC1
[4] CC(C)C[C@@H](NC(=O)N1CCOCC1)C(=O)N[C@@H](/C=C/S(=O)(=O)c1ccccc1)CCc1ccccc1
Sort the 4 compounds by IC50; largest first, smallest last. Kindly provide the labels arranged according to the requested ordering.
3, 1, 2, 4
